- Tested on: HepG2
- Assay Explanation: Effective concentration required for induction of tyrosine aminotransferase in human HepG2 cells using 74% radiolabeled Dexamethasone
- Type: functional, cell-based
Assay Readout: pEC50
Please report pEC50 as the negative decimal logarithm of the molar concentration, giving only the number.

I'd like to know its pEC50. The compound in question is `C/C=C/[C@H]1OC2(CCC3=Cc4c(cnn4-c4ccc(F)cc4)C[C@@]32C)O[C@@H]1/C=C/C`
6.79

---

- Test Target: Glucocorticoid receptor (Homo sapiens)
- Sequence (P04150 whole entry): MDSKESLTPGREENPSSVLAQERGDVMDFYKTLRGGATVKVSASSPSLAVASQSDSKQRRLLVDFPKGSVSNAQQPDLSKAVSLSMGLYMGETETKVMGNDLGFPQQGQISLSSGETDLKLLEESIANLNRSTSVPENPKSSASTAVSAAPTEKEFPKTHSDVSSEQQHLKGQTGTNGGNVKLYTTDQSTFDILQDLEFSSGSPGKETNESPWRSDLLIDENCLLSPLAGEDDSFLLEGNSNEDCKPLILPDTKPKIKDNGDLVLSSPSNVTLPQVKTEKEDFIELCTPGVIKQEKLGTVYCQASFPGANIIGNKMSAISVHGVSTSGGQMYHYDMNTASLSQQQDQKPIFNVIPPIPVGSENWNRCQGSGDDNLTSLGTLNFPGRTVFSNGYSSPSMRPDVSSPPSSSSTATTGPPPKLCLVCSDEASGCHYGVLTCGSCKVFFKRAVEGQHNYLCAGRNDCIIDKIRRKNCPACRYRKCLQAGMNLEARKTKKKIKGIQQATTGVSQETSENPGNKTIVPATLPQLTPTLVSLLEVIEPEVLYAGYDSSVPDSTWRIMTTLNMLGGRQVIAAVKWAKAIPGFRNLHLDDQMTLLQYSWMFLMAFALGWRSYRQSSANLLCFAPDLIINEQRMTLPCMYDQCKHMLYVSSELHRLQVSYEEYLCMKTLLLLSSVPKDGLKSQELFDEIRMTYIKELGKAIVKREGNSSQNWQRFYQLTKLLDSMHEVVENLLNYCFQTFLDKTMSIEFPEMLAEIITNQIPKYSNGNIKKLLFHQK
- Assay Explanation: Inhibition of human glucocorticoid receptor alpha isoform
Assay Readout: pIC50
Please report pIC50 as the negative decimal logarithm of the molar concentration, giving only the number.

Some molecules with known pIC50 results, for comparison:
| Molecule | pIC50 |
| --- | --- |
| C[C@]12Cc3cnn(-c4ccc(F)cc4)c3C=C1CC[C@]21OC[C@@H](c2ccccc2)O1 | 8.07 |
| C=C[C@@H]1CO[C@]2(CCC3=Cc4c(cnn4-c4ccc(F)cc4)C[C@@]32C)O1 | 8.24 |
| C[C@]12Cc3cnn(-c4ccc(F)cc4)c3C=C1CCC21OCCO1 (stereo in doubt; 13) | 7.14 |
| C=C[C@@H]1CO[C@@]2(CCC3=Cc4c(cnn4-c4ccc(F)cc4)C[C@@]32C)O1 | 7.42 |
| COC[C@H]1OC2(CCC3=Cc4c(cnn4-c4ccc(F)cc4)C[C@@]32C)O[C@@H]1COC | 7.59 |
| C=C[C@H]1CO[C@@]2(CCC3=Cc4c(cnn4-c4ccc(F)cc4)C[C@@]32C)O1 | 7.31 |

I'd like to know its pIC50. The molecule in question is C[C@@H]1C[C@@H](C)OC2(CCCC3=Cc4c(cnn4-c4ccc(F)cc4)C[C@@]32C)O1 (some centres undefined)
8.08

Check `C[C@@H]1CC(C)(C)O[C@@]2(CCC3=Cc4c(cnn4-c4ccc(F)cc4)C[C@@]32C)O1` too.
8.68

Check `C[C@]12Cc3cnn(-c4ccc(F)cc4)c3C=C1CC[C@@]21OC[C@H](c2ccccc2)O1` too.
7.19

---

Item-by-item account of IC50
- Test Target: Mineralocorticoid receptor (Rattus norvegicus)
- Sequence (P22199 whole entry): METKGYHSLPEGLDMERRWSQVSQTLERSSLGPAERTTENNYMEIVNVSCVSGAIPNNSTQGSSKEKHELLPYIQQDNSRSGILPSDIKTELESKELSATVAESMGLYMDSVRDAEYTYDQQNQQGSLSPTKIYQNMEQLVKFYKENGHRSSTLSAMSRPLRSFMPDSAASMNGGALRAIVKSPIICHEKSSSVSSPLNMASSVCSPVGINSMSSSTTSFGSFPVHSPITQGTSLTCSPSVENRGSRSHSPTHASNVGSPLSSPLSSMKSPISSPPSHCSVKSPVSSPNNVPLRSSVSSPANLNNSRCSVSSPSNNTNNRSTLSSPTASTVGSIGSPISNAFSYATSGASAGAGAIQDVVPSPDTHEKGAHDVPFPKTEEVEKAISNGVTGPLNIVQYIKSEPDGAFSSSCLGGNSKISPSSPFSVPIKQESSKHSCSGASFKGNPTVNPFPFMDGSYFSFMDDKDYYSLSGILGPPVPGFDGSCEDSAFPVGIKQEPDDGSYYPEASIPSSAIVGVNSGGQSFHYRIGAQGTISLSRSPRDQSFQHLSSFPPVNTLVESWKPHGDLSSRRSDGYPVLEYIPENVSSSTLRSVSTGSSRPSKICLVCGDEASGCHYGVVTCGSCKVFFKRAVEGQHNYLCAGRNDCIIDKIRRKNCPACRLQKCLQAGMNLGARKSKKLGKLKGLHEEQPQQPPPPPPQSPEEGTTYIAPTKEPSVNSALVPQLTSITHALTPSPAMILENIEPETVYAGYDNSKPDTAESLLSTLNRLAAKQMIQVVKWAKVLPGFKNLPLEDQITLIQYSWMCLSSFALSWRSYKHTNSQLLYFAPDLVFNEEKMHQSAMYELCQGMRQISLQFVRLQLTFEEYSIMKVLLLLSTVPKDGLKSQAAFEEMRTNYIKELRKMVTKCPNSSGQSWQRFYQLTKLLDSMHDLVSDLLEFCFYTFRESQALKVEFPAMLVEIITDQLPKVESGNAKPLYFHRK
Write it as a number; the unit µM goes unstated.

| Mol Smiles | Unit Text | IC50 |
| --- | --- | --- |
| C[C@]12Cc3cnn(-c4ccc(F)cc4)c3C=C1CCCC21OCCO1 | µM | 7.56 |

Then there is this compound:
I'd like to know its IC50. The compound in question is `C=C[C@H]1OC2(CCCC3=Cc4c(cnn4-c4ccc(F)cc4)C[C@@]32C)O[C@@H]1C=C`
7.4

---

- Test Target: Estrogen receptor beta (Homo sapiens, UniProt Q92731)
- Sequence (Q92731 whole entry): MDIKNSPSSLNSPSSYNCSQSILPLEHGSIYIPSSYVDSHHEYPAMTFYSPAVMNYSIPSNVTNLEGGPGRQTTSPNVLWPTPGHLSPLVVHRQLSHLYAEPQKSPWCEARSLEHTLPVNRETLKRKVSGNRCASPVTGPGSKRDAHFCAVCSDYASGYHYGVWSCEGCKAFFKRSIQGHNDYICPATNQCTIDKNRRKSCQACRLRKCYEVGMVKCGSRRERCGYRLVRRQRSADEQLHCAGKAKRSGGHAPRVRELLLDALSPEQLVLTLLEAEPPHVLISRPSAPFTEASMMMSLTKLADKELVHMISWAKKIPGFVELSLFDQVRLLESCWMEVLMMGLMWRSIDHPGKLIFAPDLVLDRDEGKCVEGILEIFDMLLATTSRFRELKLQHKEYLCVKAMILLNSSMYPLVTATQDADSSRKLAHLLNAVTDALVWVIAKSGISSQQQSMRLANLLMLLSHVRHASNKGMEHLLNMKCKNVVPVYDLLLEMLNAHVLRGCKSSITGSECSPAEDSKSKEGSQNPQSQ
pIC50: −log10 of the molar value.
Assay Readout: pIC50

I'd like to know its pIC50. The compound in question is `C=C[C@H]1OC2(CCCC3=Cc4c(cnn4-c4ccc(F)cc4)C[C@@]32C)O[C@@H]1C=C`
< 5.00

---

- Species: Mus musculus
- Assay Explanation: Effective concentration required for inhibition of interleukin-6 in mouse thioglycolate-elicited peritoneal exudate cell line using 64% radiolabeled Dexamethasone
- Assay type: functional
Assay Readout: pEC50
Please report pEC50 as the negative decimal logarithm of the molar concentration, giving only the number.

I'd like to know its pEC50. The compound in question is `C[C@@H]1C[C@H](C)O[C@@]2(CCC3=Cc4c(cnn4-c4ccc(F)cc4)C[C@@]32C)O1`
7.72

---

- Test Target: UniProt:P04150
- Assay Explanation: Inhibition of human glucocorticoid receptor alpha isoform
pIC50: −log10 of the molar value.
Classify by measured pIC50: TRUE if it is equal to or exceeds 8, FALSE if it is smaller.

| Mol Smiles | Test Target | Label Class |
| --- | --- | --- |
| C=C[C@H]1OC2(CCCC3=Cc4c(cnn4-c4ccc(F)cc4)C[C@@]32C)O[C@@H]1C=C | UniProt:P04150 | TRUE |

Next, consider the following compound.
Say whether `C[C@H]1CCO[C@]2(CCC3=Cc4c(cnn4-c4ccc(F)cc4)C[C@@]32C)O1` shows pIC50 of 8 or more.
FALSE

---

- Test Target: Glucocorticoid receptor (Homo sapiens)
- Assay Explanation: Binding affinity for human glucocorticoid receptor
API: label(entry) gives Fulfilled if the entry's IC50 is strictly smaller than 8 nM; on equality or larger values it gives Not fulfilled.

| Compound | Test Target | Label Class |
| --- | --- | --- |
| C[C@]12Cc3cnn(-c4ccc(F)cc4)c3C=C1CCCC21OCCO1 | Glucocorticoid receptor (Homo sapiens) | Not fulfilled |
| C[C@H]1C[C@H](C)OC2(CCC3=Cc4c(cnn4-c4ccc(F)cc4)C[C@@]32C)O1 (stereo partly specified) | Glucocorticoid receptor (Homo sapiens) | Fulfilled |
| C[C@]12Cc3cnn(-c4ccc(F)cc4)c3C=C1CCC21OCCO1 (stereo in doubt; 13) | Glucocorticoid receptor (Homo sapiens) | Not fulfilled |
| C=C[C@H]1OC2(CCCC3=Cc4c(cnn4-c4ccc(F)cc4)C[C@@]32C)O[C@@H]1C=C | Glucocorticoid receptor (Homo sapiens) | Fulfilled |

Next, consider the following compound.
Determine if `C[C@H]1OC2(CCC3=Cc4c(cnn4-c4ccc(F)cc4)C[C@@]32C)O[C@@H]1C` shows IC50 strictly lower than 8 nM.
Not fulfilled
